# methodNotes: Evaluation of conversion rate to active form in buffer solution (Experimental Example 1)
# Format: physicochemical
# conditionDescription: pH6.0, 0 hr
Record form. Attribute: Residual rate. Fill in for each entry.

# compound, readoutLabel, observedResult
measured = [
    ("CN1CC[C@H](c2c(O)cc(O)c3c(=O)cc(-c4ccccc4Cl)oc23)[C@H](OC(=O)CN)C1 [Comparative Example 8, reference compound]", "Residual rate", "83.5%"),
    ("CCNC(=O)O[C@@H]1CN(C)CC[C@@H]1c1c(O)cc(O)c2c(=O)cc(-c3ccccc3Cl)oc12 [Comparative Example 4, reference compound]", "Residual rate", "97.8%"),
]

Request: Would you mind telling me what Residual rate value was observed for CNCCN(C)C(=O)Oc1cc(O)c2c(=O)cc(-c3ccccc3Cl)oc2c1[C@H]1CCN(C)C[C@H]1O [Comparative Example 14, reference compound] ?
Result: 96.7%

====

# methodNotes: Stability evaluation of solution formulation (Experimental Example 2)
# Format: physicochemical
# conditionDescription: solution formulation, pH3.0, 2 week
readoutLabel: Production rate of Alvocidib (%)
Answers are plain numbers, in %.

Below, 4 compounds whose answers are already recorded.
# compound, unitText, observedResult
measured = [
    ("CCN(C[C@@H]1CCCCN1)C(=O)Oc1cc(O)c2c(=O)cc(-c3ccccc3Cl)oc2c1[C@H]1CCN(C)C[C@H]1O [Example 1, ditrifluoroacetate]", "%", 0.1),
    ("CN1CC[C@H](c2c(OC(=O)N(C)CCN)cc(O)c3c(=O)cc(-c4ccccc4Cl)oc23)[C@H](O)C1 [Comparative Example 13, reference compound]", "%", 0.3),
    ("CCCN(C[C@H]1CCCCN1)C(=O)Oc1cc(O)c2c(=O)cc(-c3ccccc3Cl)oc2c1[C@H]1CCN(C)C[C@H]1O [Example 6]", "%", 0.6),
    ("CNCCN(C)C(=O)Oc1cc(O)c2c(=O)cc(-c3ccccc3Cl)oc2c1[C@H]1CCN(C)C[C@H]1O [Comparative Example 14, reference compound]", "%", 3.9),
]

Please state, for each entry, its recorded Production rate of Alvocidib.
1. CCN(C[C@H]1CCCCN1)C(=O)Oc1cc(O)c2c(=O)cc(-c3ccccc3Cl)oc2c1[C@H]1CCN(C)C[C@H]1O [Example 2]
2. CCCN(C[C@@H]1CCCCN1)C(=O)Oc1cc(O)c2c(=O)cc(-c3ccccc3Cl)oc2c1[C@H]1CCN(C)C[C@H]1O [Example 5]

Result:
0.0
0.3

====

# methodNotes: Evaluation of conversion rate to active form in buffer solution (Experimental Example 1)
# Type: physicochemical
# conditionDescription: pH6.5, 0 hr
# Experimental: For Examples 1 to 16 and Comparative Examples 1 to 14, the attrition rate of the test compound and the conversion rate of the test compound to Alvocidib in a buffer solution were calculated by the following method. Examples 1 to 16 and Comparative Examples 1 to 14 were each left in buffer solutions adjusted to pH 5.0, 5.5, 6.0, 6.5, 7.0 and 7.4, respectively, at a concentration of 25 umol/L at 37° C. […]
readoutLabel: Production rate of Alvocidib (%)
Answers are plain numbers, in %.

# compound, unitText, Production rate of Alvocidib
measured = [
    ("CNC(=O)Oc1cc(O)c2c(=O)cc(-c3ccccc3Cl)oc2c1[C@H]1CCN(C)C[C@H]1O [Comparative Example 2, reference compound]", "%", 7.1),
    ("CN1CC[C@H](c2c(O)cc(O)c3c(=O)cc(-c4ccccc4Cl)oc23)[C@H](OC(=O)[C@@H](N)CO)C1 [Comparative Example 9, reference compound]", "%", 5.1),
]

Now look at this entry.
Request: Would you mind telling me what Production rate of Alvocidib value was observed for CN1CC[C@H](c2c(OC(=O)N(C)CCN)cc(O)c3c(=O)cc(-c4ccccc4Cl)oc23)[C@H](O)C1 [Comparative Example 13, reference compound] ?
Result: 0.2
